Reference source for all entries: ChEMBL document CHEMBL4725303

- measurement-target: Vasopressin V1a receptor (Homo sapiens, UniProt P37288)
- Sequence (P37288 whole entry): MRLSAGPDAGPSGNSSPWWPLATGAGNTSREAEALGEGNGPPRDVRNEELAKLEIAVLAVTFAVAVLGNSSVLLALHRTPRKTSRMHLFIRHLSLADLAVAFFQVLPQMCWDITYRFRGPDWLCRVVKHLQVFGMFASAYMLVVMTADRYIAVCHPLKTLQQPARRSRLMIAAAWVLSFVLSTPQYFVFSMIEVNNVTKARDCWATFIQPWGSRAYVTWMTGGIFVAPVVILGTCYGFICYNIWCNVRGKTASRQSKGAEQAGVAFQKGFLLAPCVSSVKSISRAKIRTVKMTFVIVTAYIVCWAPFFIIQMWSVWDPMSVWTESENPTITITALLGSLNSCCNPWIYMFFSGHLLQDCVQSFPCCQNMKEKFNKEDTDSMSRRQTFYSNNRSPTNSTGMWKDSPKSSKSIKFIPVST
- experiment-notes: Antagonist activity at human V1a receptor expressed in human 1321N1 cells assessed as decrease in Arg8-vasopressin-stimulated calcium flux by fluorometric calcium assay
Note that class boundaries on IC50 are low interval = under 80 nM, middle interval = from 80 nM up to 300 nM, high interval = 300 nM and over

# compound, assigned-class
records = [
    ("Cc1ccccc1N1CCN(C(=O)N2CN(C)Cc3cc(Cl)ccc32)CC1", "middle interval"),
    ("Cc1ccccc1N1CCN(C(=O)C2CN(C(=O)C3CC3)Cc3cc(Cl)ccc32)CC1 (stereo in doubt; (+)-44)", "middle interval"),
    ("Cc1ccccc1N1CCN(C(=O)C2CN(C(=O)C3CCCCC3)Cc3cc(Cl)ccc32)CC1 (stereo in doubt; (-)-47)", "middle interval"),
    ("Cc1ccccc1N1CCN(C(=O)c2ccc(Cl)c(NC(=O)c3cccs3)c2)CC1", "high interval"),
    ("Cc1ccccc1N1CCN(C(=O)N2C[C@H](C(=O)C3CCCC3)Cc3cc(Cl)ccc32)CC1", "low interval"),
    ("Cc1ccccc1N1CCN(C(=O)N2CCCCc3cc(Cl)ccc32)CC1", "high interval"),
    ("Cc1ccccc1N1CCN(C(=O)C2CN(C(=O)C(C)C)Cc3cc(Cl)ccc32)CC1 (racemic)", "middle interval"),
    ("CN(C)CCn1cc(C(=O)N2CCC3(CC2)OCc2ccccc23)c2ccc(Cl)cc21", "low interval"),
    ("O=C(N1CCN(c2ccccn2)CC1)N1CCNc2cc(Cl)ccc21", "high interval"),
    ("CC(=O)N1Cc2cc(Cl)ccc2N(C(=O)N2CCN(c3ccccc3C)CC2)C1", "low interval"),
    ("O=C(N1CCC2(CC1)OCc1ccccc12)N1CCNc2cc(Cl)ccc21", "middle interval"),
]

* * *

- measurement-target: Vasopressin V1a receptor (Homo sapiens)
pKi: −log10 of the molar value.
The threshold is inclusive: pKi of exactly 8 counts as Condition met; values below receive Condition not met.

# compound, assigned-class
records = [
    ("Cc1ccccc1N1CCN(C(=O)N2CN(C(=O)C(C)C)Cc3cc(Cl)ccc32)CC1", "Condition met"),
    ("CN(C)CCn1cc(C(=O)N2CCC3(CC2)OCc2ccccc23)c2ccc(Cl)cc21", "Condition met"),
    ("Cc1ccccc1N1CCN(C(=O)C2CN(C(=O)C3CC3)Cc3cc(Cl)ccc32)CC1 (single isomer, unassigned; (-))", "Condition not met"),
    ("Cc1ccccc1N1CCN(C(=O)C2CN(C(=O)C3CCCCC3)Cc3cc(Cl)ccc32)CC1 (stereo in doubt; (-)-47)", "Condition not met"),
    ("Cc1ccccc1N1CCN(C(=O)N2CN(C(=O)c3ccccc3)Cc3cc(Cl)ccc32)CC1", "Condition met"),
    ("Cc1ccccc1N1CCN(C(=O)N2CN(C(=O)C3(c4ccc(F)cc4)CC3)Cc3cc(Cl)ccc32)CC1", "Condition not met"),
    ("Cc1ccccc1N1CCN(C(=O)C2CN(C(=O)C3CC3)Cc3cc(Cl)ccc32)CC1 (racemic)", "Condition not met"),
    ("Cc1ccccc1N1CCN(C(=O)C2CN(C(=O)C3CC3)Cc3cc(Cl)ccc32)CC1 (stereo in doubt; (+)-44)", "Condition met"),
    ("Cc1ccccc1N1CCN(C(=O)c2ccc(Cl)c(NC(=O)c3cccs3)c2)CC1", "Condition not met"),
    ("Cc1ccccc1N1CCN(C(=O)N2CCCc3cc(Cl)ccc32)CC1", "Condition met"),
    ("Cc1ccccc1N1CCN(C(=O)N2CNCc3cc(Cl)ccc32)CC1", "Condition met"),
    ("Cc1ccccc1N1CCN(C(=O)N2CN(C(=O)C3CCCCC3)Cc3cc(Cl)ccc32)CC1", "Condition met"),
    ("Cc1ccccc1N1CCN(C(=O)C2CN(C(=O)C(C)C)Cc3cc(Cl)ccc32)CC1 (racemic)", "Condition met"),
]

* * *

- measurement-target: UniProt:P37288
- experiment-notes: Antagonist activity at human V1a receptor expressed in human 1321N1 cells assessed as decrease in Arg8-vasopressin-stimulated calcium flux by fluorometric calcium assay
pIC50: −log10 of the molar value.

# molecule, pIC50
measured = [
    ("Cc1ccccc1N1CCN(C(=O)N2CN(C(=O)c3ccccc3)Cc3cc(Cl)ccc32)CC1", 7.46),
    ("Cc1ccccc1N1CCN(C(=O)C2CN(C(=O)C3CCCC3)Cc3cc(Cl)ccc32)CC1 (racemic)", 7.46),
    ("Cc1ccccc1N1CCN(C(=O)N2CN(C(=O)C(C)C)Cc3cc(Cl)ccc32)CC1", 7.96),
    ("Cc1ccccc1N1CCN(C(=O)N2CN(C(=O)CO)Cc3cc(Cl)ccc32)CC1", 7.46),
    ("Cc1ccccc1N1CCN(C(=O)C2CN(C(=O)C3CCCCC3)Cc3cc(Cl)ccc32)CC1 (racemic)", 7.40),
    ("CC(=O)N1CCN(C(=O)N2CCN(c3ccccc3C)CC2)c2ccc(Cl)cc21", 5.85),
    ("Cc1ccccc1N1CCN(C(=O)N2CN(C(=O)C3CC3)Cc3cc(Cl)ccc32)CC1", 8.00),
    ("CN1CCN(C(=O)C2CCN(c3ccccn3)CC2)c2ccc(Cl)cc21", 6.59),
    ("Cc1ccccc1N1CCN(C(=O)N2CCNc3cc(Cl)ccc32)CC1", 7.10),
    ("Cc1ccccc1N1CCN(C(=O)N2CCNc3ccccc32)CC1", 5.55),
]
